tested on: A549; test: NCI tumour cell line growth inhibition, 48 h
Active and inactive are the calls of the source. No stated cut-off is given here; in the data, active = GI50 up to about 1.1 µM and inactive = higher.
Collected GI50 values appear next to each entry.

{"columns": ["molecule", "data value"],
 "data": [
  ["Cc1ccc(/N=N/C(=N/NC(=O)c2ccccc2)c2ccc(N(CCC#N)CCC#N)cc2C)cc1", "34.3 µM (inactive)"],
  ["Nc1ccc(-c2ccc(Nc3cc(S(=O)(=O)O)c(N)c4c3C(=O)c3ccccc3C4=O)cc2)c(S(=O)(=O)O)c1", "> 100 µM (inactive)"],
  ["COc1ccc(N2C(=O)C3C=CC(n4[nH]c(=O)n(Cc5ccccc5)c4=O)CC3C2=O)cc1 (stereo not drawn)", "> 100 µM (inactive)"],
  ["C=CCCC1CCCCNC1=S (stereo not drawn)", "> 10 µM (inactive)"],
  ["Cc1cccc2c(N)c3cccc(C(=O)NCC[N+]4(Cc5ccc([N+](=O)[O-])cc5)CCOCC4)c3nc12", "31.5 µM (inactive)"],
  ["C1CCC2(CC1)O[C@@H]1[C@@H](O2)[C@@H](O[C@H]2O[C@@H]3COC4(CCCCC4)O[C@H]3[C@@H]3OC4(CCCCC4)O[C@@H]23)O[C@@H]2COC3(CCCCC3)O[C@@H]12", "> 100 µM (inactive)"]
]}

Please find the next molecule below.
(Q) # GI50 lookup, item COC(=O)C12C34C=CC5(CCC6(C=CC1(CC3)O6)C52C(=O)OC)O4 (stereo not drawn)
(A) > 100 µM (inactive)

---

Measured GI50 values are reported for all entries that follow.
test system: NCI-H226; assay: NCI tumour cell line growth inhibition, 48 h
Activity calls are given as the source filed them. Rule as the data show it: active = GI50 up to about 1.1 µM and inactive = higher.

{"columns": ["compound", "system", "quantity name", "data value"],
 "data": [
  ["CN(C)CCNC1=CC(=O)c2c(O)ccc(O)c2C1=O", "NCI-H226", "GI50", "17.6 µM (inactive)"],
  ["CO[C@@H](c1ccccc1)[C@H](O)[C@@](O)(c1ccccc1)P(=O)(OC)OC", "NCI-H226", "GI50", "> 100 µM (inactive)"],
  ["COC1C=COC2(C)Oc3c(C)c(O)c4c(c3C2=O)/C(=N/C2CCC(O)OC2C)C=C(NC(=O)/C(C)=C\\C(=O)C2CC2C(O)C(C)C(O)C(C)C(OC(C)=O)C1C)C4=O (stereo not given)", "NCI-H226", "GI50", "2.65 µM (inactive)"],
  ["Cc1sc(NC=C2C(=O)CC(C)(C)CC2=O)nc1-c1ccccc1", "NCI-H226", "GI50", "> 100 µM (inactive)"]
]}

Consider the record given below.
(Q) Requested read-out: GI50. Entry: NC1(C(=O)O)CCc2ccc(N(CCCl)CCCl)cc2C1 (stereo not given)
(A) > 100 µM (inactive)

---

test system: NCI-H522; test: NCI tumour cell line growth inhibition, 48 h
Activity calls are given as the source filed them. No stated cut-off is given here; in the data, active = GI50 up to about 1.1 µM and inactive = higher. Residues, ends and D or L forms follow the SMILES beside them. Groups on a side chain read outwards from the residue. *: point of attachment. Cbz = O=C(OCc1ccccc1)*; Boc = CC(C)(C)OC(=O)*
Answer with one of the outcomes class 1 (active), class 0 (inactive)

Worked cases, answers included:
{"columns": ["molecule", "answer label"],
 "data": [
  ["N#CC(C#N)=CNC(N)=S", "class 0"],
  ["CC1(C)OC2C(CCP(=O)(O)O)OC(c3nc(C(N)=O)cs3)C2O1 (configuration not stated)", "class 0"],
  ["Cc1c(-c2ccccc2)n(C)c2cn[nH]c(=O)c12", "class 0"],
  ["CC(C)CC(NC(=O)OCc1ccccc1)C(=O)NCCCCC(NC(=O)C(CCCCNC(=O)C(CC(C)C)NC(=O)OCc1ccccc1)NC(=O)C(CCCCNC(=O)C(CC(C)C)NC(=O)OCc1ccccc1)NC(=O)C(CCCCNC(=O)C(CC(C)C)NC(=O)OCc1ccccc1)NC(=O)OC(C)(C)C)C(=O)O (configuration not stated) (Boc-K([Leu-Cbz])K([Leu-Cbz])K([Leu-Cbz])K([Leu-Cbz])-OH; configuration not given here)", "class 0"],
  ["COc1ccc(NC(=O)/C(Cc2nc3ccccc3nc2O)=N\\O)c(OC)c1", "class 0"]
]}

(Q) What is the recorded call for this molecule in the test? C[C@@H]1OC(=O)C[C@H]2CC(=O)N(CCc3cn(S(=O)(=O)C(F)(F)F)c4ccccc34)C[C@@H]21
(A) class 0

(Q) Per the records of this test, what outcome belongs to C=CCNC1=C2C[C@@H](C)C[C@H](OC)[C@H](O)[C@@H](C)/C=C(\C)[C@H](OC(N)=O)[C@@H](OC)/C=C\C=C(/C)C(=O)NC(=CC1=O)C2=O [TANESPIMYCIN] ?
(A) class 1
